Biological target: NRAS G12C (Homo sapiens (Human), UniProt P01111+P62937, G12C)
Sequence (P01111 whole entry G12C): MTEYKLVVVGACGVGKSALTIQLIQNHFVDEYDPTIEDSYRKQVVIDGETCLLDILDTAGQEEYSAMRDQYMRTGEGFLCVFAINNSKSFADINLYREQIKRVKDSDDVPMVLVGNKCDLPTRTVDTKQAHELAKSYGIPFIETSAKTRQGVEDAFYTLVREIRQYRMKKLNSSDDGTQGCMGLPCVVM
Sequence (P62937 whole entry): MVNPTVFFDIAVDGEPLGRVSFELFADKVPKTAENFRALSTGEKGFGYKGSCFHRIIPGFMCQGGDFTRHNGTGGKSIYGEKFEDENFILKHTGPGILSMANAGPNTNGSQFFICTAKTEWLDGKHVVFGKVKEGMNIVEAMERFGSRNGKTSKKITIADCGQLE
Experiment: Ras-Raf disruption/FRET/MOA assay (BRAF RBD, Cyclophilin A)
Assay type: biochemical
Conditions: read-out: NRAS G12C FRET data IC50
endpoint_name: IC50

Example results:
compound_smiles=CCn1c(-c2cc(N3CCN(C)CC3)cnc2[C@H](C)OC)c2c3cc(ccc31)-c1csc(n1)C[C@H](NC(=O)[C@H](C(C)C)N(C)C(=O)[C@@H]1OCC[C@@H]1c1ccncc1)C(=O)N1CCC[C@H](N1)C(=O)OCC(C)(C)C2 endpoint_name=IC50 experimental_value="10 to 100 nM"
compound_smiles=CCn1c(-c2cccnc2[C@H](C)OC)c2c3cc(ccc31)-c1csc(n1)C[C@H](NC(=O)[C@H](C(C)C)N(C)C(=O)N(C)C1CN(C)C1)C(=O)N1CCC[C@H](N1)C(=O)OCC(C)(C)C2 endpoint_name=IC50 experimental_value="100 to 1000 nM"
compound_smiles=CCn1c(-c2cccnc2[C@H](C)OC)c2c3cc(ccc31)-c1csc(n1)C[C@H](NC(=O)[C@H](C(C)C)N(C)C(=O)N1CCCC[C@H](N(C)C)C1)C(=O)N1CCC[C@H](N1)C(=O)OCC(C)(C)C2 endpoint_name=IC50 experimental_value="10 to 100 nM"

Now take the following compound into account.
NRAS G12C (Homo sapiens (Human), UniProt P01111+P62937, G12C) assay, compound CCn1c(-c2cccnc2[C@H](C)OC)c2c3cc(ccc31)-c1csc(n1)C[C@H](NC(=O)[C@H](C(C)C)N(C)C(=O)N1CCO[C@@H](CN(C)C)C1)C(=O)N1CCC[C@H](N1)C(=O)OCC(C)(C)C2 , recorded IC50 = 10 to 100 nM

----------
Target: KRAS G12D (Homo sapiens (Human), UniProt P01116+P62937, G12D)
Sequence (P01116 other isoform, or with tags, fused parts or gaps G12D): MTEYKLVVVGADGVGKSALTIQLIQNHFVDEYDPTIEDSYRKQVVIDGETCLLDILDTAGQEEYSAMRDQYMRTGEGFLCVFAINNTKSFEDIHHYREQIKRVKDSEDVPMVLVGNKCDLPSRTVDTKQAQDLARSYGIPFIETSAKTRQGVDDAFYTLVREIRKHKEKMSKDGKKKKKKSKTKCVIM
Sequence (P62937 whole entry): as the sequence (P62937 whole entry) above
Assay: Ras-Raf disruption/FRET/MOA assay (BRAF RBD, Cyclophilin A)
Type: biochemical
Settings: read-out: KRAS G12D FRET IC50
Recorded measurements of IC50, one per entry

compound=CCn1c(-c2cccnc2[C@H](C)OC)c2c3cc(ccc31)-c1cc(O)cc(c1)C[C@H](NC(=O)[C@H](C(C)C)N(C)C(=O)[C@H]1CN[C@@H]3CCO[C@H]13)C(=O)N1CCC[C@H](N1)C(=O)OCC(C)(C)C2 endpoint_name=IC50 experimental_value="10 to 100 nM"
compound=CCn1c(-c2cccnc2[C@H](C)OC)c2c3cc(ccc31)-c1csc(n1)C[C@H](NC(=O)[C@H](C(C)C)N(C)C(=O)N1CC3CCC1CN3C)C(=O)N1CCC[C@H](N1)C(=O)OCC(C)(C)C2 endpoint_name=IC50 experimental_value="1000 to 10000 nM"
compound=CCn1c(-c2cccnc2[C@H](C)OC)c2c3cc(ccc31)-c1csc(n1)C[C@H](NC(=O)[C@H](C(C)C)N(C)C(=O)[C@H]1CCN(S(C)(=O)=O)C1)C(=O)N1CCC[C@H](N1)C(=O)OCC(C)(C)C2 endpoint_name=IC50 experimental_value="> 10000 nM"
compound=CCn1c(-c2cnccc2COC)c2c3cc(ccc31)-c1cc(O)cc(c1)C[C@H](NC(=O)[C@H](C(C)C)N(C)C(=O)[C@H]1CCN(C3COC3)C1)C(=O)N1CCC[C@H](N1)C(=O)OCC(C)(C)C2 endpoint_name=IC50 experimental_value="1000 to 10000 nM"
compound=CCn1c(-c2cccnc2[C@H](C)OC)c2c3cc(ccc31)-c1cc(O)cc(c1)C[C@H](NC(=O)[C@H](C(C)C)N(C)C(=O)[C@@H]1[C@H]3CC[C@H](C3)[C@@H]1N)C(=O)N1CCC[C@H](N1)C(=O)OCC(C)(C)C2 endpoint_name=IC50 experimental_value="100 to 1000 nM"
compound=CCn1c(-c2cccnc2[C@H](C)OC)c2c3cc(ccc31)-c1csc(n1)C[C@H](NC(=O)[C@H](C(C)C)N(C)C(=O)N1CC(Cc3cnn(C)c3)C1)C(=O)N1CCC[C@H](N1)C(=O)OCC(C)(C)C2 endpoint_name=IC50 experimental_value="100 to 1000 nM"

Input CCn1c(-c2cccnc2[C@H](C)OC)c2c3cc(ccc31)-c1csc(n1)C[C@H](NC(=O)[C@H](C(C)C)N(C)C(=O)N1CC[C@@]13CCCNC3)C(=O)N1CCC[C@H](N1)C(=O)OCC(C)(C)C2 . Output IC50: 100 to 1000 nM

Input CCn1c(-c2cccnc2[C@H](C)OC)c2c3cc(ccc31)-c1cc(O)cc(c1)C[C@H](NC(=O)[C@H](C(C)C)N(C)C(=O)[C@H]1CCC(=O)O1)C(=O)N1CCC[C@H](N1)C(=O)OCC(C)(C)C2 . Output IC50: 100 to 1000 nM

Input CCn1c(-c2cccnc2[C@H](C)OC)c2c3cc(ccc31)-c1cc(O)cc(c1)C[C@H](NC(=O)[C@H](C(C)C)N(C)C(=O)C1CCC3(CCOC3)O1)C(=O)N1CCC[C@H](N1)C(=O)OCC(C)(C)C2 (stereo partly drawn) . Output IC50: 100 to 1000 nM

----------
Test system: NCI-H358 cells (K-Ras G12C)
Assay: CellTiter-Glo cell viability, NCI-H358
Assay type: cell-based, human
Conditions: Homo sapiens, NCI-H358, 120 h, K-Ras G12C, 5-day treatment; read-out: H358 Cell Viability IC50
Recorded measurements of IC50, one per entry

compound=CCn1c(-c2cccnc2[C@H](C)OC)c2c3cc(ccc31)-c1csc(n1)C[C@H](NC(=O)[C@H](C(C)C)N(C)C(=O)N1CCOC[C@H]1C)C(=O)N1CCC[C@H](N1)C(=O)OCC(C)(C)C2 experimental_value="10 to 100 nM"
compound="CCn1c(-c2cccnc2[C@H](C)OC)c2c3cc(ccc31)-c1csc(n1)C[C@H](NC(=O)[C@H](C(C)C)N1C[C@@H](c3ccccc3)CC1=O)C(=O)N1CCC[C@H](N1)C(=O)OCC(C)(C)C2 (single isomer, unassigned)" experimental_value="100 to 1000 nM"
compound=CCn1c(-c2cccnc2[C@H](C)OC)c2c3cc(ccc31)-c1cc(O)cc(c1)C[C@H](NC(=O)[C@H](C(C)C)N(C)C(=O)[C@H]1[C@@H](N)[C@@H]3CC[C@H]1O3)C(=O)N1CCC[C@H](N1)C(=O)OCC(C)(C)C2 experimental_value="100 to 1000 nM"
compound=CCn1c(-c2cccnc2[C@H](C)OC)c2c3cc(ccc31)-c1csc(n1)C[C@H](NC(=O)[C@H](C(C)C)N(C)C(=O)N1CCN3C(=O)CN(C)C[C@H]3C1)C(=O)N1CCC[C@H](N1)C(=O)OCC(C)(C)C2 experimental_value="10 to 100 nM"
compound=CCn1c(-c2cccnc2[C@H](C)OC)c2c3cc(ccc31)-c1cc(O)cc(c1)C[C@H](NC(=O)[C@H](C(C)C)N(C)C(=O)C1(F)CC1)C(=O)N1CCC[C@H](N1)C(=O)OCC(C)(C)C2 experimental_value="10 to 100 nM"

Input CCn1c(-c2cccnc2[C@H](C)OC)c2c3cc(ccc31)-c1csc(n1)C[C@H](NC(=O)[C@H](C(C)C)N(C)C(=O)N1CC(N3CCC3)C1)C(=O)N1CCC[C@H](N1)C(=O)OCC(C)(C)C2 . Output IC50: 10 to 100 nM

Input CCN(C)C(=O)N(C)[C@H](C(=O)N[C@H]1Cc2nc(cs2)-c2ccc3c(c2)c(c(-c2cccnc2[C@H](C)OC)n3CC)CC(C)(C)COC(=O)[C@@H]2CCCN(N2)C1=O)C(C)C . Output IC50: 10 to 100 nM

----------
Recorded measurements of pIC50, one per entry
Biological target: NRAS WT (Homo sapiens (Human), UniProt P01111+P62937)
Sequence (P01111 whole entry): as the sequence (P01111 whole entry G12C) above, with C12G counted along it
Sequence (P62937 whole entry): as the sequence (P62937 whole entry) above
Assay: Ras-Raf disruption/FRET/MOA assay (BRAF RBD, Cyclophilin A)
Format: biochemical
pIC50: −log10 of the molar value.

compound_smiles=CCn1c(-c2cccnc2[C@H](C)OC)c2c3cc(ccc31)-c1csc(n1)C[C@H](NC(=O)[C@H](C(C)C)N(C)C(=O)N1C[C@H](N)[C@@H](O)C1)C(=O)N1CCC[C@H](N1)C(=O)OCC(C)(C)C2 tested_system="NRAS WT (Homo sapiens (Human), UniProt P01111+P62937)" experimental_value="6.00 to 7.00"

Input CCn1c(-c2cccnc2[C@H](C)OC)c2c3cc(ccc31)-c1csc(n1)C[C@H](NC(=O)[C@H](C(C)C)N(C)C(=O)N1CCCC[C@H](N(C)C)C1)C(=O)N1CCC[C@H](N1)C(=O)OCC(C)(C)C2 . Output pIC50: 7.00 to 8.00

----------
Target: NRAS WT (Homo sapiens (Human), UniProt P01111+P62937)
Test: Ras-Raf disruption/FRET/MOA assay (BRAF RBD, Cyclophilin A)
Assay type: biochemical
pIC50: −log10 of the molar value.
Recorded measurements of pIC50, one per entry

Example results:
compound_smiles=CCn1c(-c2cccnc2[C@H](C)OC)c2c3cc(ccc31)-c1csc(n1)C[C@H](NC(=O)[C@H](C(C)C)N(C)C(=O)N1CC3(CC(N(C)C(C)C)C3)C1)C(=O)N1CCC[C@H](N1)C(=O)OCC(C)(C)C2 experimental_value="6.00 to 7.00"
compound_smiles=CCn1c(-c2cc(N3CCN(C)CC3)cnc2[C@H](C)OC)c2c3cc(ccc31)-c1csc(n1)C[C@H](NC(=O)[C@H](C(C)C)N(C)C(=O)N1CC(OC)C1)C(=O)N1CCC[C@H](N1)C(=O)OCC(C)(C)C2 experimental_value="7.00 to 8.00"
compound_smiles=CCn1c(-c2cc(N3CCN(C)CC3)cnc2[C@H](C)OC)c2c3cc(ccc31)-c1csc(n1)C[C@H](NC(=O)[C@H](C(C)C)N(C)C(=O)[C@@H]1OCC[C@@H]1c1ccncc1)C(=O)N1CCC[C@H](N1)C(=O)OCC(C)(C)C2 experimental_value="7.00 to 8.00"

Now take the following compound into account.
Input CCn1c(-c2cccnc2[C@H](C)OC)c2c3cc(ccc31)-c1csc(n1)C[C@H](NC(=O)[C@H](C(C)C)N(C)C(=O)N1CCO[C@@H](c3ccccc3)C1)C(=O)N1CCC[C@H](N1)C(=O)OCC(C)(C)C2 . Output pIC50: 7.00 to 8.00
